measured.on: recombinant CaMKIIδ (Homo sapiens (Human))
experiment.notes: CaMKIIδ biochemical assay (HTRF)
condition.description: potency against CamKIIδ acquired with in-house assays, reference for selectivity values; read-out: CamKIIδ potency (Table 1)
Description: CaMKIIδ Biochemical Assay The biochemical activity of recombinant CaMKIIδ was measured by monitoring the phosphorylation of a target peptide using Homogenous Time Resolved Fluorescence (HTRF) technology from CisBio Bioassays.
assay.readout: pIC50
A value of pIC50 is the negative decimal logarithm of a concentration given in moles per litre.

Value of pIC50 reported for the compound CCN(CC)[C@@H](C)CNC(=O)c1cc(-c2cnn3ccc(-c4cccs4)nc23)nc(N2CC[C@H]2C(=O)NC)c1 is 9.37

###

measured.on: recombinant CaMKIIδ (Homo sapiens (Human), UniProt Q13557)
experiment.notes: CaMKIIδ biochemical assay (HTRF)
condition.description: 10 pM CaMKIIδ, 110 nM calmodulin, 12 μM ATP, 1 hour; read-out: CAMKIID-HTRF-384V2 (IC50 - nM)
I'd appreciate it if you marked entries 1 when IC50 is lower than 0.3 nM and 0 when it is not.

Prompt line: Does this molecule meet the criterion IC50 < 0.3 nM? CCN(CC)[C@@H](C)CNC(=O)c1cc(-c2cnn3ccc(-c4cccs4)nc23)nc(N2CCNC2=O)c1 [Example 184]
Response line: 0

Prompt line: Does this molecule meet the criterion IC50 < 0.3 nM? CCN(CC)[C@@H](C)CNC(=O)c1cc(NCC2(C)COC2)nc(-c2cnn3ccc(-c4cccs4)nc23)c1 [Example 191]
Response line: 1

Prompt line: Does this molecule meet the criterion IC50 < 0.3 nM? CCN(CC)[C@@H](C)CNC(=O)c1cc(-c2cnn3ccc(-c4cccs4)nc23)nc(N2CCC3(COC3)C2)c1 [Example 233]
Response line: 1

Prompt line: Does this molecule meet the criterion IC50 < 0.3 nM? CCN(CC)[C@@H](C)CNC(=O)c1cc(NCCN2CC(F)(F)C2)nc(-c2cnn3ccc(-c4cccs4)nc23)c1 [Example 224]
Response line: 1

Prompt line: Does this molecule meet the criterion IC50 < 0.3 nM? CN(C)c1cc(C(=O)N2CCCC[C@H]2CN)cc(-c2cnn3ccc(-c4ccccc4)nc23)n1 [Example 135]
Response line: 0

Prompt line: Does this molecule meet the criterion IC50 < 0.3 nM? CCN(CC)[C@@H](C)CNC(=O)c1cc(-c2nccs2)nc(-c2cnn3ccc(-c4cccs4)nc23)c1 [Example 338]
Response line: 0

Prompt line: Does this molecule meet the criterion IC50 < 0.3 nM? CCN(CC)[C@@H](C)CNC(=O)c1cc(NCCCO)nc(-c2cnn3ccc(-c4cccs4)nc23)c1 [Example 220]
Response line: 1

Prompt line: Does this molecule meet the criterion IC50 < 0.3 nM? CCN(CC)[C@@H](C)CNC(=O)c1cc(NC(=O)C2CC2)nc(-c2cnn3ccc(-c4cccs4)nc23)c1 [Example 190]
Response line: 1

Prompt line: Does this molecule meet the criterion IC50 < 0.3 nM? NC[C@H]1CCCCN1C(=O)c1cc(-c2cnn3ccc(-c4ccccc4)nc23)ncc1Cl [Example 137]
Response line: 0

Prompt line: Does this molecule meet the criterion IC50 < 0.3 nM? CCN(CC)[C@@H](C)CNC(=O)c1cc(-c2cnn3ccc(-c4cccs4)nc23)nc(N2CCC[C@@H]2COC)c1 [Example 273]
Response line: 0

Prompt line: Does this molecule meet the criterion IC50 < 0.3 nM? CCN[C@@H](C)CNC(=O)c1cc(-c2cnn3ccc(-c4cccs4)nc23)nc(N2CC(O)C2)c1 [Example 169]
Response line: 0

Prompt line: Does this molecule meet the criterion IC50 < 0.3 nM? CCN(CC)[C@@H](C)CNC(=O)c1cc(OCC2(C)COC2)nc(-c2cnn3ccc(-c4cccs4)nc23)c1 [Example 349]
Response line: 0

Prompt line: Does this molecule meet the criterion IC50 < 0.3 nM? C[C@@]1(CNC(=O)c2ccnc(-c3cnn4ccc(-c5cccs5)nc34)c2)CCCN1 [Example 12]
Response line: 0

Prompt line: Does this molecule meet the criterion IC50 < 0.3 nM? CCCC(CNC(=O)c1ccnc(-c2cnn3ccc(-c4ccccc4)nc23)c1)N(CC)CC (stereo not shown) [Example 60]
Response line: 0

Prompt line: Does this molecule meet the criterion IC50 < 0.3 nM? CCC(N)CNC(=O)c1ccnc(-c2cnn3ccc(-c4ccccc4)nc23)c1 (stereo not shown) [Example 46]
Response line: 0

Prompt line: Does this molecule meet the criterion IC50 < 0.3 nM? CCN(CC)[C@@H](C)CNC(=O)c1cc(-c2cnn3ccc(-c4cccs4)nc23)nc(N2CC[C@H]2C(=O)N2CC(S(C)(=O)=O)C2)c1 [Example 302]
Response line: 1

Prompt line: Does this molecule meet the criterion IC50 < 0.3 nM? CCN(CC)[C@@H](C)CNC(=O)c1cc(-c2cnn3ccc(-c4cccs4)nc23)nc(N2CC(NS(=O)(=O)C3CC3)C2)c1 [Example 154]
Response line: 1

Prompt line: Does this molecule meet the criterion IC50 < 0.3 nM? CCN(CC)[C@@H](C)CNC(=O)c1cc(-c2cnn3ccc(-c4cccs4)nc23)nc(N2CC(F)C2)c1 [Example 153]
Response line: 1

Prompt line: Does this molecule meet the criterion IC50 < 0.3 nM? C[C@@H](CNC(=O)c1ccnc(-c2cnn3ccc(-c4ccccc4)nc23)c1)NCc1ncccn1 [Example 49]
Response line: 0

Prompt line: Does this molecule meet the criterion IC50 < 0.3 nM? CCN(CC)[C@@H](C)CNC(=O)c1cc(-c2cnn3ccc(-c4cccs4)nc23)nc(N2CC[C@H]2C(=O)N2CC(NS(C)(=O)=O)C2)c1 [Example 286]
Response line: 1

Prompt line: Does this molecule meet the criterion IC50 < 0.3 nM? CCN(CC)[C@@H](C)CNC(=O)c1cc(N[C@H](C)C(N)=O)nc(-c2cnn3ccc(-c4cccs4)nc23)c1 [Example 235]
Response line: 0

Prompt line: Does this molecule meet the criterion IC50 < 0.3 nM? CCN(CC)[C@@H](C)CNC(=O)c1cc(-c2cnn3ccc(-c4cccs4)nc23)nc(N2CC(C)(N(C)C)C2)c1 [Example 248]
Response line: 1

Prompt line: Does this molecule meet the criterion IC50 < 0.3 nM? CCN(CC)[C@@H](C)CNC(=O)c1cc(-c2cnn3ccc(-c4cccs4)nc23)nc(N2CCC23CCC3)c1 [Example 250]
Response line: 0

Prompt line: Does this molecule meet the criterion IC50 < 0.3 nM? CCN(CC)[C@@H](C)CNC(=O)c1cc(-c2cnn3ccc(-c4cccs4)nc23)nc(N2CC(C(F)(F)F)C2)c1 [Example 147]
Response line: 0

Prompt line: Does this molecule meet the criterion IC50 < 0.3 nM? CCN(CCN)C(=O)c1ccnc(-c2cnn3ccc(-c4ccccc4)nc23)c1 [Example 65]
Response line: 0

Prompt line: Does this molecule meet the criterion IC50 < 0.3 nM? CCN(CC)[C@@H](C)CNC(=O)c1cc(-c2cnn(C3COC3)c2)nc(-c2cnn3ccc(-c4cccs4)nc23)c1 [Example 342]
Response line: 1

Prompt line: Does this molecule meet the criterion IC50 < 0.3 nM? CCN(CC)[C@@H](C)CNC(=O)c1cc(-c2cnn3ccc(-c4cncnc4)nc23)nc(N2CC(OC)C2)c1 [Example 166]
Response line: 0

Prompt line: Does this molecule meet the criterion IC50 < 0.3 nM? CCN(CC)[C@@H](C)CNC(=O)c1cc(-c2cnoc2)nc(-c2cnn3ccc(-c4cccs4)nc23)c1 [Example 335]
Response line: 1

###

measured.on: recombinant CaMKIIδ (Homo sapiens (Human), UniProt Q13557)
experiment.notes: CaMKIIδ biochemical assay (HTRF)
condition.description: 10 pM CaMKIIδ, 110 nM calmodulin, 12 μM ATP, 1 hour; read-out: CAMKIID-HTRF-384V2 (IC50 - nM)
For each of the molecules below, state its log10 IC50.
// stored as log10 of IC50 expressed in nM

Value of log10 IC50 reported for the molecule CCN(CC)[C@@H](C)CNC(=O)c1cc(-c2cnn3ccc(-c4cccs4)nc23)nc(N2CC(CO)C2)c1 is -1.00

Value of log10 IC50 reported for the molecule CCN(CC)[C@@H](C)CNC(=O)c1cc(NCCC(C)(C)O)nc(-c2cnn3ccc(-c4cccs4)nc23)c1 is -0.89

Value of log10 IC50 reported for the molecule CCN(CC)C(=O)[C@@H]1CCN1c1cc(C(=O)NC[C@H](C)N(CC)CC)cc(-c2cnn3ccc(-c4cccs4)nc23)n1 is -0.35

Value of log10 IC50 reported for the molecule CCN(CC)[C@@H](C)CNC(=O)c1cc(-c2cnn3ccc(-c4cccs4)nc23)nc(N2CC[C@H]2C(=O)O)c1 is 0.29

Value of log10 IC50 reported for the molecule CCC[C@@]1(CNC(=O)c2ccnc(-c3cnn4ccc(-c5cccs5)nc34)c2)CCCN1 is 0.99

Value of log10 IC50 reported for the molecule CNC(=O)[C@@H]1CCN1c1cc(C(=O)NC[C@H](C)N)cc(-c2cnn3ccc(-c4cccs4)nc23)n1 is 1.71

Value of log10 IC50 reported for the molecule CCN(CC)[C@@H](C)CNC(=O)c1cc(NCCN(C)C)nc(-c2cnn3ccc(-c4ccccc4)nc23)c1 is -0.25

Value of log10 IC50 reported for the molecule CCN(CC)[C@@H](C)CNC(=O)c1cc(-c2cnn3ccc(-c4ccns4)nc23)nc(N2CC[C@H]2C(=O)NC)c1 is -0.57

Value of log10 IC50 reported for the molecule CCN(CC)[C@@H](C)CNC(=O)c1cc(-c2cnn3ccc(-c4cccs4)nc23)nc(N2CCC[C@H]2CO)c1 is -0.51

Value of log10 IC50 reported for the molecule CCN(CC)[C@@H](C)CNC(=O)c1cc(NCc2ncc[nH]2)nc(-c2cnn3ccc(-c4cccs4)nc23)c1 is -0.89

Value of log10 IC50 reported for the molecule N[C@H](CNC(=O)c1ccnc(-c2cnn3ccc(-c4ccccc4)nc23)c1)COc1ncccn1 is 2.31

Value of log10 IC50 reported for the molecule CCN(CC)[C@@H](C)CNC(=O)c1cc(-c2cnn3ccc(-c4ccccc4)nc23)nc(N2CC[C@H]2C(=O)NC)c1 is 0.33

Value of log10 IC50 reported for the molecule O=C(NC[C@@H]1C[C@H](F)CN1)c1ccnc(-c2cnn3ccc(-c4cccs4)nc23)c1 is 1.10

Value of log10 IC50 reported for the molecule CC[C@]1(CNC(=O)c2ccnc(-c3cnn4ccc(-c5ccccc5)nc34)c2)CCCN1 is 1.44

Value of log10 IC50 reported for the molecule CCN(CC)[C@@H](C)CNC(=O)c1cc(N)nc(-c2cnn3ccc(-c4cccs4)nc23)c1 is -1.40

Value of log10 IC50 reported for the molecule CC(C)C[C@@]1(CNC(=O)c2ccnc(-c3cnn4ccc(-c5cccs5)nc34)c2)CCCN1 is 0.87

Value of log10 IC50 reported for the molecule CCN(CC)[C@@H](C)CNC(=O)c1cc(NCC2(N3CCCC3)COC2)nc(-c2cnn3ccc(-c4cccs4)nc23)c1 is -0.42

Value of log10 IC50 reported for the molecule CCN(CC)[C@@H](C)CNC(=O)c1cc(-c2cnn3ccc(-c4cccs4)nc23)nc(N2CC(F)(F)C(F)(F)C2)c1 is 0.26

Value of log10 IC50 reported for the molecule CCN(CC)[C@@H](C)CNC(=O)c1cc(-c2cnn3ccc(-c4cccs4)nc23)nc(N2C[C@H](O)[C@@H](O)C2)c1 is -0.85

Value of log10 IC50 reported for the molecule CN(C)c1cc(C(=O)N2CCCC[C@@H]2CN)cc(-c2cnn3ccc(-c4ccccc4)nc23)n1 is 0.72

Value of log10 IC50 reported for the molecule COc1cc(C(=O)N2CCCC[C@H]2CN)cc(-c2cnn3ccc(-c4ccccc4)nc23)n1 is 2.48

Value of log10 IC50 reported for the molecule CCN(CC)[C@@H](C)CNC(=O)c1cc(N[C@H](C)CO)nc(-c2cnn3ccc(-c4cccs4)nc23)c1 is -0.49

Value of log10 IC50 reported for the molecule CCN(CC)[C@@H](C)CNC(=O)c1cc(-c2cnn3ccc(-c4cccs4)nc23)nc(N2CC(OC(F)F)C2)c1 is -0.74

Value of log10 IC50 reported for the molecule CCN(CC)[C@@H](C)CNC(=O)c1cc(OCc2ccc[n+]([O-])c2)nc(-c2cnn3ccc(-c4cccs4)nc23)c1 is -0.27

Value of log10 IC50 reported for the molecule O=C(c1ccnc(-c2cnn3ccc(-c4ccccc4)nc23)c1)N1C2CCCC1CNCC2 (centres unmarked) is 1.52

Value of log10 IC50 reported for the molecule CCN(CC)[C@@H](C)CNC(=O)c1cc(-c2cnn3ccc(-c4cccs4)nc23)nc(N2CCC23COC3)c1 is 0.11

Value of log10 IC50 reported for the molecule CCN(CC)[C@@H](C)CNC(=O)c1cc(NS(=O)(=O)CC)nc(-c2cnn3ccc(-c4cccs4)nc23)c1 is -0.14

Value of log10 IC50 reported for the molecule CCC(C)N[C@@H](C)CNC(=O)c1ccnc(-c2cnn3ccc(-c4ccccc4)nc23)c1 (some centres unmarked) is 1.89

Value of log10 IC50 reported for the molecule CCN(CC)[C@@H](C)CNC(=O)c1cc(-c2cnn3ccc(-c4cccs4)nc23)nc(N2CCC(O)C(F)(F)C2)c1 (some centres unmarked) is -0.07

// data source = patent US10100058B2
